Recorded below: pKi, system Androgen receptor (Homo sapiens, UniProt P10275).
pKi: −log10 of the molar value.
PARAMETER: pKi

1. C=CCC1Oc2cccc(NC)c2-c2ccc3c(c21)C(C)=CC(C)(C)N3 (stereo not given)    5.59
2. C=CCC1Oc2cccc(C=C)c2-c2ccc3c(c21)C(C)=CC(C)(C)N3 (stereo not given)    6.62
3. C=CCC1Oc2cccc(O)c2-c2ccc3c(c21)C(C)=CC(C)(C)N3 (stereo not given)    5.69
4. C#Cc1cccc2c1-c1ccc3c(c1C(CC=C)O2)C(C)=CC(C)(C)N3 (stereo not given)    6.19
5. C=CCC1Oc2cccc(SC)c2-c2ccc3c(c21)C(C)=CC(C)(C)N3 (stereo not given)    5.61

====

Experiment: Binding affinity towards aldosterone receptor (Mineralocorticoid receptor)
Parameters: species or system Homo sapiens
Reported Ki values for the following molecules.
PARAMETER: Ki (nM)

1. C=CCC1Oc2cccc(NC)c2-c2ccc3c(c21)C(C)=CC(C)(C)N3 (stereo unspecified)    251
2. C=CCC1Oc2cccc(SC)c2-c2ccc3c(c21)C(C)=CC(C)(C)N3 (stereo unspecified)    93.8
3. C#Cc1cccc2c1-c1ccc3c(c1C(CC=C)O2)C(C)=CC(C)(C)N3 (stereo unspecified)    350
4. C=CCC1Oc2cccc(O)c2-c2ccc3c(c21)C(C)=CC(C)(C)N3 (stereo unspecified)    1370
5. C=CCC1Oc2cccc(OC)c2-c2ccc3c(c21)C(C)=CC(C)(C)N3 (stereo unspecified)    46
6. C=CCC1Oc2cccc(CO)c2-c2ccc3c(c21)C(C)=CC(C)(C)N3 (stereo unspecified)    292
7. C[C@]12C=CC(=O)C=C1CCC1[C@@H]2[C@@H](O)C[C@@]2(C)[C@H]1CC[C@]2(O)C(=O)CO (single isomer, unassigned)    37
8. C=CCC1Oc2cccc(OC(F)F)c2-c2ccc3c(c21)C(C)=CC(C)(C)N3 (stereo unspecified)    35.8
9. C=CCC1Oc2cccc(C=C)c2-c2ccc3c(c21)C(C)=CC(C)(C)N3 (stereo unspecified)    57

====

Target: Progesterone receptor (Homo sapiens, UniProt P06401)
Sequence (P06401 whole entry): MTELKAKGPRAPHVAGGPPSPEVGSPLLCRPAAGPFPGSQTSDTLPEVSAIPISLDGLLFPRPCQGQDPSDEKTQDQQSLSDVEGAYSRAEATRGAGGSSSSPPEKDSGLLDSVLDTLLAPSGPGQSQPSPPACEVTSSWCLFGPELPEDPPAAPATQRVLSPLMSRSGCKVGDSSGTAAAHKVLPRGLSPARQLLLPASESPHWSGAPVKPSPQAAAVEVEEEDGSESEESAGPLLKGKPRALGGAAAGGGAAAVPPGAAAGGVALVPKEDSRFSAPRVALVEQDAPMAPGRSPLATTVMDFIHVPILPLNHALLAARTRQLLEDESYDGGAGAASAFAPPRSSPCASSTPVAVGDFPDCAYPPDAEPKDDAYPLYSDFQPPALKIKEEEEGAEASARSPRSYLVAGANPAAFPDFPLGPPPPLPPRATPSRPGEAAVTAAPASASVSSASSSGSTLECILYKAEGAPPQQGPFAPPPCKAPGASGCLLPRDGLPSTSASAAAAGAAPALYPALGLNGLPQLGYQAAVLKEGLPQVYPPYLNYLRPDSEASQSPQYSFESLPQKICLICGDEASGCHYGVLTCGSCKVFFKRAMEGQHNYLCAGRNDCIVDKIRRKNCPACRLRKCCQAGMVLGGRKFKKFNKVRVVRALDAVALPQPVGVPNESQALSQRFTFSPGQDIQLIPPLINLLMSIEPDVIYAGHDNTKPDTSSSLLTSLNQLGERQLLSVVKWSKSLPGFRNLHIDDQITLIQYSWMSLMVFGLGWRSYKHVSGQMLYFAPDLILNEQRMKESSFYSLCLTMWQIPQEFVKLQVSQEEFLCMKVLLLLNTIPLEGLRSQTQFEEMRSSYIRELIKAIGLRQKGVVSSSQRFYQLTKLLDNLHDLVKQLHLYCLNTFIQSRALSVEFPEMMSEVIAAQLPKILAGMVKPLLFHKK
Assay: Displacement of [3H]progesterone from human Progesterone receptor A
pKi: −log10 of the molar value.
PARAMETER: pKi

1) C=CCC1Oc2cccc(C=C)c2-c2ccc3c(c21)C(C)=CC(C)(C)N3 (stereo not given)    6.36
2) C=CCC1Oc2c(Br)cc(O)c(Cl)c2-c2ccc3c(c21)C(C)=CC(C)(C)N3 (stereo not given)    7.66
3) C=CCC1Oc2ccc(OCC#N)c(OC)c2-c2ccc3c(c21)C(C)=CC(C)(C)N3 (stereo not given)    5.51
4) C#Cc1cccc2c1-c1ccc3c(c1C(CC=C)O2)C(C)=CC(C)(C)N3 (stereo not given)    5.62
5) C=CCC1Oc2ccc(CO)c(OC)c2-c2ccc3c(c21)C(C)=CC(C)(C)N3 (stereo not given)    7.00
6) C=CCC1Oc2ccc(Br)c(OC)c2-c2ccc3c(c21)C(C)=CC(C)(C)N3 (stereo not given)    7.47
7) C=CCC1Oc2ccc(O)c(OC)c2-c2ccc3c(c21)C(C)=CC(C)(C)N3 (stereo not given)    6.82
8) C=CCC1Oc2c(C=C)ccc(OC)c2-c2ccc3c(c21)C(C)=CC(C)(C)N3 (stereo not given)    6.35
9) C=CCC1Oc2ccc(Cl)c(OC)c2-c2ccc3c(c21)C(C)=CC(C)(C)N3 (stereo not given)    7.54
